- experiment.description: folding stability dG unfold (combined trypsin and chymotrypsin); higher = more stable
endpoint.name: folding stability dG unfold (kcal/mol)
Give the value in kcal/mol but do not write kcal/mol after it.

Example entries begin here.
* SATFRLPNGKTISIMAPLPPGEMTPDQVISMARMIVRNIFPPGKKVEVKIEVEQYPNGMVHVKIPIKAESAG [r14_389_TrROS] | 0.406
* SAGGAGQRVVLSSDKSLEDLEKLREENPDVSIEVTEINKLEPVKPENGGLEEVPSEIVAELTPGERRSAGGS [r8_172_JUSTAS] | -0.0394
* SAGGSAGGSMNVPPGESVTVTVPPGTGLEWLRAQLPSSRTWDFATFVSENPSPPVTTYEITVGSAGGSAGGS [r12_469_JUSTAS] | 1.76
* SASPSETTTYTVELTSTDPSLTPEDLAERAREEFEAALPPGTRVEVEVVSVTPIPETGTTRYTIRITVRRSA [r9_706_JUSTAS] | 4.55
* SAGMKITVKAVLKKGEKEYEVEFEADSLEEIIGAILELYEKLNFDELRVKIKIGDKEYEIELPFLIPDESAG [r5_946_TrMRF] | 4.24
* SAGGPGRMREREFEIEFPFEPGQSIEDALRELIGLPPGIQIEDIKVEVDPEDGWVKISVTITVYDPNDSAGG [r13_828_TrROS] | 1.29
* SAGGGMMVLKVSQPVLLLSTVTLPNGFPKFLPVSPLSLETTVTFTGSDQDAEELAAELKAQGATVTEESAGG [r13_452_JUSTAS] | 0.715
* SAGMSEEERKAAEEASKPPVKVETLTVTVLVEVDGKLYLVRATITRVVLPDGSIVTELKIEIIPLEDLSAGG [r19_11_TrROS_Hall] | 3.88
* SAGGSAGGSAGGPNIKIKDVHEHPPEDGNPIVMFEIKAKDDDGEKVYIIITPDKIHIMPISAGGSAGGSAGG [r7_960_TrROS] | 0.927
* SAGGSAGGSAGYLELKISFFDPDGQILASITIWIEIVIPPPPKMEYERDPEDGNNKWEHDSAGGSAGGSAGG [r17_348_TrROS] | 2.26

### Prompt Please look up its folding stability dG unfold: SAGDVPVPATFEVELPGDGTARVTVVRHPGAAPGGFDTVRVEFRPGPTSSVTLTYRVPPGSAPVPFLGGSAG [r5_47_TrMRF]
### Response 0.965

### Prompt Please look up its folding stability dG unfold: MKLLKITITITVTRQFPTVPVTSTTTITLEYTTPPDDPAAIEEAKKTAEEIAKKLGATDVTVTTEEVVLESS [r1_346_JUSTAS]
### Response 3.84

### Prompt Please look up its folding stability dG unfold: SAGGSAGGSAGGGSITITFKHPDGGEVTIEITPPEPTVRVTVTLPNGEKLEYEFDFVPASAGGSAGGSAGGS [r10_595_TrMRF]
### Response 3.58

### Prompt Please look up its folding stability dG unfold: SAGGSAGGSADDEVVEIVDVLPLPNRPVLVVKVRGPDGQTKVYDPATGKWLTPEEAKAALSSAGGSAGGSAG [r3_206_TrMRF]
### Response 1.61

### Prompt Please look up its folding stability dG unfold: SAGGSAGGSAGPPNVKLTFTIMIMEMKMEPPPDGNPKMEMVMVPIEIEITAPPGDEITAISAGGSAGGSAGG [r11_174_TrROS]
### Response 2.93

### Prompt Please look up its folding stability dG unfold: SAGGSMPVPYESKNVSPSGVEVSSTTYPYDFQIEKFPGSNPVITRTDPKTGEVTPIGTEEELEKLLKSAGGS [r8_232_JUSTAS]
### Response 0.0982

### Prompt Please look up its folding stability dG unfold: SAGGGSHTFKDNGKKIKITVYPPPNGNMRVQLQIYDPDDGKPKPKAIAPFRGGSVEDAIKDLLDAGISAGGS [r16_378_TrROS]
### Response -0.625

### Prompt Please look up its folding stability dG unfold: SMTPEEARALAEAIAAERAAAGYATEMELTVTPVNGVPVATFRFRFTDAAGRATEFTVTVAPDGTVTFTPSA [r9_1027_JUSTAS]
### Response 3.64

### Prompt Please look up its folding stability dG unfold: SAGPPKKREFEIMIQIPLPPGQSAEELKDLLEIPIRLPDGKTIEIRPRAIEVDPGPGQVTVHYKIEVTDSAG [r5_939_TrROS]
### Response 0.463

### Prompt Please look up its folding stability dG unfold: SAMVEVRIEYDEETGEIRIEVRAEEEGEELTEEEIEELARELAEELGLPVEIKEIRVEKAPEVEEVVLESAG [r14_556_TrROS_Hall]
### Response 0.884

### Prompt Please look up its folding stability dG unfold: DRIEIDVEMYDGYFYKIEIRWPGNGEPRELMFPGSLSEAKDFAEDLIQEQHPGAPVDEIDVEPVPMPPGDFS [r1_80_TrROS]
### Response 1.69

### Prompt Please look up its folding stability dG unfold: SAMSEKDMEPIETFELPETNVKIELYYNKKTKKYVIKIKNKKTKKTKTIVIKSKDGKITLEELKKLIKKSAG [r14_948_TrROS_Hall]
### Response 3.61

### Prompt Please look up its folding stability dG unfold: SSLSIPGATKEEFEEIAEELEKKNPGVKVTVTYDPENGVITITITKPVKDKKGNLIGTETEVITITVTKPSA [r9_378_JUSTAS]
### Response 2.41

### Prompt Please look up its folding stability dG unfold: SAGGSAGGSPVVVIEVPAEDLSPEDIKALLAAAPDENAVIVITNPDGEKRTLVFTPDGRIEPLSAGGSAGGS [r12_1054_TrROS_Hall]
### Response 0.593

### Prompt Please look up its folding stability dG unfold: MEAEELATTLAAEALAPLPRPFEIDPENNEVRVPGGGELAELPIRVVLVDEDGEIVEERIVPVRIRAEEPGS [r1_318_TrMRF]
### Response 0.542

### Prompt Please look up its folding stability dG unfold: SAGGSAGGSKLRLVLKFKTPEEAEEAARKLAEELKKKEGVKEVKVSVVKVNGEYYVVVEVEKESAGGSAGGS [r12_7_TrROS_Hall]
### Response 3.72
